Plant response rating, Cocklebur values, listed per item
Test system: cocklebur (Xanthium strumarium)
assayInfo: Test B preemergence
Type: in vivo
cond: preemergence; Rate 125 g/ha; scale 0 to 100, 0 no effect, 100 complete control
Reply with just the number.

CC1(C)CCc2cn(C3CCN(c4cccc(C(F)(F)F)c4)C3=O)nc21 (stereo not shown) [Compound 10]; 0
CC(C)(C)c1ccn(C2CCN(c3cccc(Br)c3)C2=O)n1 (stereo not shown) [Compound 33]; 0
CCC(C)c1nn(C2CCN(c3cccc(C(F)(F)F)c3)C2=O)cc1Cl (stereo not shown) [Compound 13]; 0

Moving on to the next compound.
Inquiry: Short answer please: Plant response rating, Cocklebur, cocklebur (Xanthium strumarium), entry Cc1ccc(N2CCC(n3ccc(C(C)(C)C)n3)C2=O)cc1Cl (stereo not shown) [Compound 41]
Reply text: 0
